- system under test: Nuclear hormone receptor DAF-12 (Heterodera glycines)
- protocol: hgDAF-12 reporter activation EC50 – cell-based, luminescence, HEK293, dose response (AID 743059);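 note: agonist potency for compounds that raise hgDAF-12 reporter luminescence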
- condition summary: HEK293 hgDAF-12 reporter, luciferase luminescence
The source made the active and inactive calls.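 Rule for the calls: active = EC50 at or below 10 µM; inactive = EC50 above 10 µM.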
# valid calls are 1 (yes) for active, 0 (no) for inactive; nothing else

- compound: "Cc1cc(-c2ccncc2)n2ncc(-c3ccccc3)c2n1"
  group: "0 (no)"

--- query ---
query: What outcome does the record of this test show for Cc1ccc(-c2nc(Nc3ccccc3)n[nH]2)cc1 ?
result: 0 (no)

###

- system under test: Nuclear hormone receptor DAF-12 (Heterodera glycines)
- protocol: hgDAF-12 reporter activation EC50 – cell-based, luminescence, HEK293, dose response (AID 743059);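 note: agonist potency for compounds that raise hgDAF-12 reporter luminescence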
- condition summary: HEK293 hgDAF-12 reporter, luciferase luminescence
Activity calls are given as the source filed them.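 The calls were made as follows: active = EC50 at or below 10 µM; inactive = EC50 above 10 µM.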
Listing: EC50 of selected compounds

Worked set:
- smi: "Cc1nnc(SCC(=O)Nc2nsc(-c3ccc(C(C)(C)C)cc3)n2)s1"
  measured endpoint: "EC50"
  assay value: "> 67.5 µM (inactive)"
- smi: "c1ccc(N=Nc2ccc(C3=NCCO3)cc2)cc1"
  measured endpoint: "EC50"
  assay value: "> 67.6 µM (inactive)"

Record summary for Cc1nn(-c2nnc(NC3CCCCC3)nn2)c(C)c1Br : reported EC50 = > 67.6 µM (inactive)

Record summary for Oc1ccccc1-c1cc(-c2ccc3c(c2)OCCO3)n[nH]1 : reported EC50 = > 67.6 µM (inactive)

Record summary for CCOC(=O)c1c(C)oc2c1cc(O)c1ccccc12 : reported EC50 = > 67.5 µM (inactive)

Record summary for Cc1ccc(-c2cn3cccnc3n2)cc1 : reported EC50 = > 67.6 µM (inactive)

###

- system under test: Nuclear hormone receptor DAF-12 (Heterodera glycines)
- protocol: hgDAF-12 reporter activation EC50 – cell-based, luminescence, HEK293, dose response (AID 743059);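 note: agonist potency for compounds that raise hgDAF-12 reporter luminescence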
- condition summary: HEK293 hgDAF-12 reporter, luciferase luminescence
Active and inactive are the calls of the source.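 The calls were made as follows: active = EC50 at or below 10 µM; inactive = EC50 above 10 µM.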
measured endpoint: EC50

- molecule: "Cc1cc(NC(=O)c2nn3cccnc3c2Cl)no1"
  assay value: "> 67.5 µM (inactive)"

Record summary for CC1CCC(NC(=O)c2cccn2C)CC1 (stereo not given) : reported EC50 = > 67.6 µM (inactive)

Record summary for COCCNC(=O)/C(C#N)=C/c1cc(C)n(C2CCCCC2)c1C : reported EC50 = > 67.5 µM (inactive)

Record summary for Clc1ccc(CSc2nc3ccncc3[nH]2)cc1 : reported EC50 = > 67.5 µM (inactive)

Record summary for Cc1cccc(/C(N)=N/OC(=O)c2cccs2)c1 : reported EC50 = > 67.5 µM (inactive)

Record summary for O=C(NNCc1ccccc1)c1ccccn1 : reported EC50 = > 67.6 µM (inactive)

###

- system under test: Nuclear hormone receptor DAF-12 (Heterodera glycines)
- protocol: hgDAF-12 reporter activation EC50 – cell-based, luminescence, HEK293, dose response (AID 743059);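 note: agonist potency for compounds that raise hgDAF-12 reporter luminescence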
- condition summary: HEK293 hgDAF-12 reporter, luciferase luminescence
Calls of active or inactive are those of the source.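 The calls were made as follows: active = EC50 at or below 10 µM; inactive = EC50 above 10 µM.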
Listing: EC50 of selected molecules

Worked set:
- molecule: "CC(C)Oc1cc(O)c2c(=O)c(-c3ccc(O)cc3)coc2c1"
  EC50: "> 67.6 µM (inactive)"
- molecule: "C/C(=N/NC(=O)c1cc(C(C)C)[nH]n1)c1cccs1"
  EC50: "> 67.6 µM (inactive)"
- molecule: "Cc1csc(NC(=O)c2ccc3ccccc3n2)n1"
  EC50: "> 67.6 µM (inactive)"
- molecule: "Cc1ccc(SCCSc2ncccn2)cc1"
  EC50: "> 67.5 µM (inactive)"

Let us move to another entry and its EC50.
Record summary for Cc1scc(C(=O)N/N=C/c2ccsc2)c1C : reported EC50 = > 67.6 µM (inactive)
